- Assay procedure: growth inhibitors of anaerobic choline-fed gram-negatives, minimal medium, absorbance (AID 1963822)
- Measurement setup: Gram-negative bacterium anaerobic choline minimal medium, stronger effect = lower value
The whole screen tested about 55,000 compounds, of which about 90 (0.2%) were called active. What follows is part of a selection rich in actives, with near analogues and random picks from the rest.
Give measured z-score for each item. Keep answers brief.
Give bare numbers.

Take a look at these entries with their results.
>>> df
                                   molecule  meas_value
0        Cc1csc2ncc(C(=O)N3CCCCCC3)c(=O)n12       -0.29
1  Cc1nc(-c2csc(S(=O)(=O)N3CCCC(C(=O)N4CCCCC4)C3)c2)no1 (stereo unspecified)        0.63
2  CCCN(CCC)CCNc1cc(C)nc2c(-c3ccccc3OC)c(C)nn12         1.1
3  CCN1CCN(C(=O)c2cc(N(C)S(=O)(=O)c3ccccc3)ccn2)CC1        0.78

Provide z-score for all items below, preserving their order.
1. COc1ccc(-c2noc(-c3ccc[nH]c3=O)n2)cc1OC
2. COc1ccc(-n2nnc3c(N4CCN(C(=O)CC5CCCC5)CC4)ncnc32)cc1
3. COc1ccc(C2N=C(Nc3ccc(C(C)C)cc3)Nc3nc(C)cc(=O)n32)cc1OC (stereo unspecified)
4. Cc1cccc(C2C3=C(CC(c4ccccc4)CC3=O)Nc3onc(C)c32)c1 (stereo unspecified)
5. COc1ccc2nc(-n3nc(C)c4c3NC(=O)CC4c3ccc4c(c3)OCO4)sc2c1 (stereo unspecified)
6. O=S(=O)(c1ccccc1F)N1CCN(c2ncnc3c2nnn3-c2ccccc2)CC1
7. O=S(=O)(Cc1ccccc1)N1CCCC1c1ccc(Cl)cc1 (stereo unspecified)

1.32
-0.34
0.3
1.84
1.23
1.03
-0.27
